Data credit: paper PMC10786919

assay: Experimental LogD (partition coefficient); details: not stated, Partition Coeff LogD
readout-kind: logD
Quick one: just the number, no unit, thanks!

Use these answered entries as a reference point.
>  <compound>
CC(=O)N[C@@H](C)C(=O)N[C@@H](C)C(=O)N[C@@H](C)C(=O)N[C@@H](C)C(=O)N[C@@H](CC(C)C)C(=O)N[C@H](C(=O)N[C@@H](Cc1ccccc1)C(=O)N[C@]1(C)CCCCCCC=CCCC[C@@](C)(C(=O)N[C@@H](CO)C(=O)N[C@@H](C)C(=O)N[C@@H](C)C(N)=O)NC(=O)[C@H](CC2CCC2)NC(=O)[C@H](CCC(N)=O)NC(=O)[C@H](C)NC(=O)[C@H](Cc2c[nH]c3ccccc23)NC(=O)[C@H](Cc2ccc(O)cc2)NC(=O)[C@H](CCC(=O)O)NC1=O)[C@@H](C)O [MP-360]

>  <logD>
3.24

$$$$
>  <compound>
CC(=O)N[C@@H](CCCCN=[N+]=[N-])C(=O)NCCC(=O)N(C)[C@@H](CC(C)C)C(=O)N[C@H](C(=O)N[C@@H](Cc1ccccc1)C(=O)N[C@]1(C)CCCCCCC=CCCC[C@@](C)(C(=O)N[C@@H](CO)C(=O)N[C@@H](C)C(=O)N[C@@H](C)C(N)=O)NC(=O)[C@H](CC2CCC2)NC(=O)[C@H](CCC(N)=O)NC(=O)[C@H](C)NC(=O)[C@H](Cc2c[nH]c3ccccc23)NC(=O)[C@H](Cc2ccc(O)cc2)NC(=O)[C@H](CCC(=O)O)NC1=O)[C@@H](C)O [MP-189]

>  <logD>
3.04

$$$$

Pending compound:
Task item: Suppose we examine the compound CC(=O)N[C@@H](CC(C)C)C(=O)N[C@H](C(=O)N[C@@H](Cc1ccccc1)C(=O)NC(C)(C)C(=O)N[C@@H](CCC(=O)O)C(=O)N[C@@H](Cc1ccc(O)cc1)C(=O)N[C@@H](Cc1c[nH]c2ccccc12)C(=O)N[C@H](CCC(N)=O)C(=O)N[C@@H](CC(C)C)C(=O)N[C@@H](CC1CCC1)C(=O)NC(C)(C)C(=O)N[C@@H](CO)C(=O)N[C@@H](C)C(=O)N[C@@H](C)C(N)=O)[C@@H](C)O [MP-786] ; what logD value has been reported?
Reply: 1.99

---

experiment: Solubility assay (kinetic solubility, PBS pH 7); assay type: physicochemical; conditions: pH 7, aqueous buffer, kinetic from dmso stock, pH 7, PBS; read-out: Solubility
Positions of bridges follow the written chain, without caps; N, C: chain ends. Non-standard residues stand in square brackets, D forms with d. Residues, ends and D or L forms follow the SMILES beside them. R8 = C=CCCCCCC[C@@](C)(N)C(=O)O; Cba = N[C@@H](CC1CCC1)C(=O)O; S5 = C=CCCC[C@](C)(N)C(=O)O
Outcome: criterion met for solubility kinetic of at least 30 µM; criterion not met for anything lower.

>  <compound>
CC(=O)N[C@@H](CC(C)C)C(=O)N[C@H](C(=O)N[C@@H](Cc1ccccc1)C(=O)N[C@]1(C)CCCCCCC=CCCC[C@@](C)(C(=O)N[C@@H](CO)C(N)=O)NC(=O)[C@H](CC2CCC2)NC(=O)[C@H](CC(C)C)NC(=O)[C@H](CCC(N)=O)NC(=O)[C@H](Cc2c[nH]c3ccccc23)NC(=O)[C@H](Cc2ccc(O)cc2)NC(=O)[C@H](CCC(=O)O)NC1=O)[C@@H](C)O [MP-204] (Ac-LTF[R8]EYWQL[Cba][S5]S-NH2; staple 4-11)

>  <assigned-label>
criterion not met

$$$$
>  <compound>
CC(=O)N[C@@H](C)C(=O)N[C@@H](C)C(=O)N[C@@H](Cc1ccccc1)C(=O)N[C@]1(C)CCCCCCC=CCCC[C@@](C)(C(=O)N[C@@H](CO)C(=O)N[C@@H](C)C(=O)N[C@@H](C)C(N)=O)NC(=O)[C@H](CC2CCC2)NC(=O)[C@H](C)NC(=O)[C@H](C)NC(=O)[C@H](Cc2c[nH]c3ccccc23)NC(=O)[C@H](Cc2ccc(O)cc2)NC(=O)[C@H](CCC(=O)O)NC1=O [MP-1207] (Ac-AAF[R8]EYWAA[Cba][S5]SAA-NH2; staple 4-11)

>  <assigned-label>
criterion met

$$$$
>  <compound>
CC(=O)N[C@@H](CCCCN=[N+]=[N-])C(=O)NCCC(=O)N(C)[C@@H](CC(C)C)C(=O)N[C@H](C(=O)N[C@@H](Cc1ccccc1)C(=O)N[C@]1(C)CCCCCCC=CCCC[C@@](C)(C(=O)N[C@@H](CO)C(=O)N[C@@H](C)C(=O)N[C@@H](C)C(N)=O)NC(=O)[C@H](CC2CCC2)NC(=O)[C@H](CCC(N)=O)NC(=O)[C@H](C)NC(=O)[C@H](Cc2c[nH]c3ccccc23)NC(=O)[C@H](Cc2ccc(O)cc2)NC(=O)[C@H](CCC(=O)O)NC1=O)[C@@H](C)O [MP-189]

>  <assigned-label>
criterion met

$$$$
>  <compound>
CC(=O)N[C@@H](CCC(=O)O)C(=O)N[C@@H](CCC(=O)O)C(=O)N[C@@H](CCCCN=[N+]=[N-])C(=O)NCCCCCC(=O)N[C@H](C(=O)N[C@@H](CO)C(=O)N[C@@H](Cc1ccccc1)C(=O)N[C@]1(C)CCCCCCC=CCCC[C@@](C)(C(N)=O)NC(=O)[C@H](CC(C)C)NC(=O)[C@H](CC(C)C)NC(=O)[C@H](C)NC(=O)[C@H](Cc2c[nH]c3ccccc23)NC(=O)[C@H](Cc2ccc(O)cc2)NC(=O)[C@H](CCC(=O)O)NC1=O)[C@@H](C)O [MP-661]

>  <assigned-label>
criterion not met

$$$$

Moving on to the next compound.
Task item: Evaluate CC(=O)N[C@@H](CCCNC(=N)N)C(=O)N[C@@H](CCCNC(=N)N)C(=O)NCCCCCC(=O)N[C@@H](CCCCN=[N+]=[N-])C(=O)N[C@@H](CC(C)C)C(=O)N[C@H](C(=O)N[C@@H](Cc1ccccc1)C(=O)N[C@]1(C)CCCCCCC=CCCC[C@@](C)(C(=O)N[C@@H](CO)C(=O)N[C@@H](C)C(=O)N[C@@H](C)C(N)=O)NC(=O)[C@H](CC2CCC2)NC(=O)[C@H](CCC(N)=O)NC(=O)[C@H](C)NC(=O)[C@H](Cc2c[nH]c3ccccc23)NC(=O)[C@H](Cc2ccc(O)cc2)NC(=O)[C@H](CCC(=O)O)NC1=O)[C@@H](C)O [MP-007] : solubility kinetic at minimum 30 µM?
Reply: criterion met
